# Tested on: Jurkat
# assay-overview: Inhibition of TNF-alpha-induced necroptosis in FADD-deficient human Jurkat T cells
# Type: functional, cell-based
pEC50: −log10 of the molar value.
Note to self: values exactly at 6 are true (1). So pEC50 at or above 6 is true (1), below is false (0).

molecule	discrete-label
Cn1c(C#N)ccc1C(=O)NCc1c(F)cccc1Cl	true (1)
CC(NC(=O)c1cccn1C(C)C)c1c(F)cccc1Cl (racemic)	false (0)
CCn1c(Br)ccc1C(=O)NCc1c(F)cccc1Cl	false (0)
Cn1c(C#N)ccc1S(=O)(=O)NCc1c(F)cccc1Cl	false (0)
CC(C)n1cccc1C(=O)N[C@@H](C)c1c(F)cccc1Cl	true (1)
CC(C)n1cccc1C(=O)NCc1c(F)cccc1Cl	true (1)
Cc1ccn(C(C)C)c1C(=O)NCc1c(F)cccc1Cl	false (0)
Cn1cc(C#N)cc1C(=O)NCc1c(F)cccc1Cl	false (0)
CN1C(=O)C(Cc2c[nH]c3ccccc23)NC1=S (racemic) [NECROSTATIN]	true (1)
CC(C)n1cc(C#N)cc1C(=O)NCc1c(F)cccc1Cl	false (0)
O=C(NCc1c(F)cccc1Cl)c1ccc[nH]1	false (0)
CCCCC(NC(=O)c1cccn1C(C)C)c1c(F)cccc1Cl (racemic)	false (0)
O=C(NCc1c(F)cccc1Cl)c1cccn1Cc1ccccc1	false (0)
CC(C)n1cccc1C(=O)N[C@H](C)c1c(F)cccc1Cl	false (0)
Cc1ccn(C)c1C(=O)NCc1c(F)cccc1Cl	false (0)
Cc1cc[nH]c1C(=O)NCc1c(F)cccc1Cl	false (0)
CCn1c(C#N)ccc1C(=O)NCc1c(F)cccc1Cl	false (0)
CN(Cc1c(F)cccc1Cl)C(=O)c1cccn1C	false (0)
CC(c1ccccc1)n1cccc1C(=O)NCc1c(F)cccc1Cl (configuration not stated)	false (0)
